Reference source for all entries: patent US20250051345A1

# reported QPatch Emax; entries follow
target: human Cav1.2 (Homo sapiens (Human), UniProt Q13936); assay: Sophion QPatch dose-response assay, whole-cell voltage clamp of barium currents in the Cav1.2-HEK293 (AUX) cell line; assay type: cell-based; details: comparative examples; maximal fold change of peak inward current
Sequence (Q13936 whole entry): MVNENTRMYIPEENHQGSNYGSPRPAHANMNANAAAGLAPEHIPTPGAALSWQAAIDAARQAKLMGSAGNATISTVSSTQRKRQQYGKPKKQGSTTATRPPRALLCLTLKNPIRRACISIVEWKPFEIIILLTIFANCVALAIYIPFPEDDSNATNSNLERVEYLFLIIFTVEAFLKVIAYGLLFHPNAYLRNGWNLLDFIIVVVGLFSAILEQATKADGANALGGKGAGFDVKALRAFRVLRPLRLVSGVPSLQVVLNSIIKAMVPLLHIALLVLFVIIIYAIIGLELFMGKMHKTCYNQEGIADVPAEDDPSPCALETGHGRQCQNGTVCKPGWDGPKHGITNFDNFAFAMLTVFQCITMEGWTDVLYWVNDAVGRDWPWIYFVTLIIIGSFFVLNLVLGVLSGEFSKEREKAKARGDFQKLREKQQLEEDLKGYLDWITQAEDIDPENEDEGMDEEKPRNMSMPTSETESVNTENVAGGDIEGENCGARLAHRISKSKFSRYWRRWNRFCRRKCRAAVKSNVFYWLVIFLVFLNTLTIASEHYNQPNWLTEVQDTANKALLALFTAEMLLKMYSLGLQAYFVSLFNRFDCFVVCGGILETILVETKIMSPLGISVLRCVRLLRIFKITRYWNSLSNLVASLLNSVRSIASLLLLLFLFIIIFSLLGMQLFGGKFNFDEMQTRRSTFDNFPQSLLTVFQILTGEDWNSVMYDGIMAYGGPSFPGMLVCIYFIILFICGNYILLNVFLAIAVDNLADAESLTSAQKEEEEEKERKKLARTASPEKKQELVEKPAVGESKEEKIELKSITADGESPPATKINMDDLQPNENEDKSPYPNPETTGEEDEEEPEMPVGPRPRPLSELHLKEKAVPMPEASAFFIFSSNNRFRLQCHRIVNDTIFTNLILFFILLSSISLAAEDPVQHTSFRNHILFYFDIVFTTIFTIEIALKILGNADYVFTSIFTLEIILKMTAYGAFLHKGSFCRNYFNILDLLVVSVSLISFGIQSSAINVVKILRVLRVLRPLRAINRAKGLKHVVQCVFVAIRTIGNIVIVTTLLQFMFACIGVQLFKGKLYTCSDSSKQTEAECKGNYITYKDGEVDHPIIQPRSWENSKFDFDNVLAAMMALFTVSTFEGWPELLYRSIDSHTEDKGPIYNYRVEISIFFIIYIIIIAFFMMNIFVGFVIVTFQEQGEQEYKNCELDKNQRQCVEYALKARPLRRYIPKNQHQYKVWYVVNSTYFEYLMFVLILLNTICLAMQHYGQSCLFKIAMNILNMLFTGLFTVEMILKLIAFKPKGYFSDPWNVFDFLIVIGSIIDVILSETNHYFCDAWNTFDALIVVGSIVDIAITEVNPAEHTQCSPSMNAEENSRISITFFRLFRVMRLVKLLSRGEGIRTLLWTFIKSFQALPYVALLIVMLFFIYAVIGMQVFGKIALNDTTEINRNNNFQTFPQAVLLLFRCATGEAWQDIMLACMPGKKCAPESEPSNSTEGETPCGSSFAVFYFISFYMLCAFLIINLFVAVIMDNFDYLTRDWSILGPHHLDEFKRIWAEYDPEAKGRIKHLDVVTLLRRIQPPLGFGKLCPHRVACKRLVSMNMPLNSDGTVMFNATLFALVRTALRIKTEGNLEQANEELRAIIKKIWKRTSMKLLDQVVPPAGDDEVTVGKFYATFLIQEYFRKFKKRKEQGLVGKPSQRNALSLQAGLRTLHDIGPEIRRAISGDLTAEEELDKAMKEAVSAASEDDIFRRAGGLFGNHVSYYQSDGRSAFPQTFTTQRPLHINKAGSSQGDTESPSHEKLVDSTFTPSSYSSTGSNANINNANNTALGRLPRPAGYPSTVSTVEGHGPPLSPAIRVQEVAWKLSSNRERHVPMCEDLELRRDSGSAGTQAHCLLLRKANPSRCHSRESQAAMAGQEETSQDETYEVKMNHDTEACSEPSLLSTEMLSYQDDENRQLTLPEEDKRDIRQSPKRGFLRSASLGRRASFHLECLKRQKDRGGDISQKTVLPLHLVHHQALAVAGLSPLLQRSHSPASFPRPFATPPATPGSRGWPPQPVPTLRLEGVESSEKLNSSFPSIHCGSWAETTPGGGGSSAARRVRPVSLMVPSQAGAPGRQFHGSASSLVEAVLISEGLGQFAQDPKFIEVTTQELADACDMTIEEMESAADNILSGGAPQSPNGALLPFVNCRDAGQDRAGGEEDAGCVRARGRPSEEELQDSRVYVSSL

Look over these answered cases.
COMPOUND	QPatch Emax
COC(=O)C1=C(C)NC2=C(C(=O)OC2)C1c1ccccc1C(F)(F)F (stereo not shown)	1.4
COC(=O)C1=C(C)NC2=C(C(=O)OC2)C1c1ccccc1OC(F)F (stereo not shown)	1.7
COC(=O)C1=C(C)NC2=C(C(=O)OC2)C1c1ccccc1C (stereo not shown)	1.4
COC(=O)C1=C(C)NC(C)=C([N+](=O)[O-])[C@H]1c1ccccc1C(F)(F)F	3.9
CCOC(=O)C1=C(C)NC2=C(C(=O)OC2)C1c1ccccc1C(F)(F)F (stereo not shown)	1.9

Q: Please report the recorded QPatch Emax for `CCOC(=O)C1=C(C)NC2=C(C(=O)OC2)[C@H]1c1ccccc1OC(F)F` .
Ans: 2.2

Q: Please report the recorded QPatch Emax for `CCOC(=O)C1=C(C)NC2=C(C(=O)OC2)[C@H]1c1ccccc1OCc1ccccc1` .
Ans: 4.3

----------
target: human Cav1.2 (Homo sapiens (Human), UniProt Q13936); assay: Sophion QPatch dose-response assay, whole-cell voltage clamp of barium currents in the Cav1.2-HEK293 (AUX) cell line; assay type: cell-based; conditions: 6-point dose response, 10 determinations per concentration; n = 1 unless stated
# reported pEC50; entries follow
In plain terms, pEC50 is the concentration in mol/L turned into minus its base-10 logarithm.

Look over these answered cases.
MOLECULE	pEC50
COC(=O)C1=C(CF)NC2=C(C(=O)OC2)[C@H]1c1cncc(F)c1[C@@H](C)F	7.21
COC(=O)C1=C(C)NC2=C(C(=O)OC2)[C@H]1c1cncc(F)c1[C@@H](C)F (single isomer, unassigned)	6.66

Note: attention shifts to another entry.
Q: Request body: readout pEC50, system human Cav1.2 (Homo sapiens (Human), UniProt Q13936), query COC(=O)C1=C(C(F)F)NC2=C(C(=O)OC2)[C@H]1c1cncc(F)c1[C@@H](C)F (single isomer, unassigned) . Return the value.
Ans: 6.60

----------
assay: Compound exposure in brain (cerebellum) and blood of wild-type mice; format: in vivo, mouse; settings: mouse, brain (cerebellum) / blood, ip, 3 mg/kg; C57BL/6J male mice, i.p., one hour after administration; read-out: Brain: blood Ratio
EXPERIMENTAL ENDPOINT: Kp at 1 h
Respond with the number and no other words.

Q: Please report the recorded Kp at 1 h for `COC(=O)C1=C(CF)NC2=C(C(=O)OC2)[C@H]1c1cncc(F)c1[C@@H](C)F` .
Ans: 1.5

----------
molecular target: human Cav1.2 (Homo sapiens (Human)); experiment: Sophion QPatch dose-response assay, whole-cell voltage clamp of barium currents in the Cav1.2-HEK293 (AUX) cell line; format: cell-based; settings: comparative examples, single enantiomers of reported racemates
pEC50: −log10 of the molar value.
Label Not met if pEC50 falls below 6; label Met in every other case.

Observe how each entry below is paired with its result.
COMPOUND	MEASUREMENT TARGET	CLASS ASSIGNMENT
COC(=O)C1=C(C)NC2=C(C(=O)OC2)C1c1ccccc1C (stereo not drawn)	human Cav1.2 (Homo sapiens (Human))	Not met
COC(=O)C1=C(C)NC2=C(C(=O)OC2)C1c1ccccc1OC(F)F (stereo not drawn)	human Cav1.2 (Homo sapiens (Human))	Met
CCOC(=O)C1=C(C)NC2=C(C(=O)OC2)[C@H]1c1ccccc1OC(F)F	human Cav1.2 (Homo sapiens (Human))	Met
COC(=O)C1=C(C)NC2=C(C(=O)OC2)C1c1ccccc1C(F)(F)F (stereo not drawn)	human Cav1.2 (Homo sapiens (Human))	Met

Q: Exam item: decide whether the reported pEC50 for `CCOC(=O)C1=C(C)NC2=C(C(=O)OC2)[C@H]1c1ccccc1OCc1ccccc1` is at least 6.
Ans: Met
